# Tested on: P388
# assay.remarks: Inhibitory concentration required to reduce murine p388 leukemia cell number to 50% of control cultures
# Format: functional, cell-based
# run.parameters: Mus musculus
reported.property: IC50 (nM)

molecular.string: CN(C)CCNC(=O)c1cccc2c(-c3ccccc3)c3ccccc3nc12
reported.property: IC50
reported.result: 4100
--
molecular.string: CN(C)CCNC(=O)c1cccc2cc3cccc(N(C)C)c3nc12
reported.property: IC50
reported.result: 1200
--
molecular.string: CN(C)CCNC(=O)c1cccc2cc3cccnc3nc12
reported.property: IC50
reported.result: 340
--
molecular.string: CN(C)CCNC(=O)c1cccc2cc3ccccc3nc12
reported.property: IC50
reported.result: 98
--
molecular.string: CC(C)c1cccc2cc3cccc(C(=O)NCCN(C)C)c3nc12
reported.property: IC50
reported.result: 650

[1] Cc1ccc2nc3c(C(=O)NCCN(C)C)cccc3cc2c1
[2] COc1ccc2cc3cccc(C(=O)NCCN(C)C)c3nc2c1
Task item: Out of 1 and 2 , name the one with the higher IC50. # reply format: chosen label
Reply: 1

[a] CN(C)CCNC(=O)c1cccc2cc3ccc(N(C)C)cc3nc12
[b] CN(C)CCNC(=O)c1cccc2cc3cc(N(C)C)ccc3nc12
[c] CN(C)CCNC(=O)c1cccc2c(N)c3ccccc3nc12
[d] CN(C)CCNC(=O)c1cccc2cc3cc(O)ccc3nc12
Task item: Arrange the 4 compounds by rising IC50, starting with the smallest. In your reply, arrange the labels in the requested order.
Reply: c, d, a, b

[A] CCc1ccc2nc3c(C(=O)NCCN(C)C)cccc3cc2c1
[B] Cc1cccc2cc3cccc(C(=O)NCCN(C)C)c3nc12
[C] COc1cccc2c1C(=O)c1c(O)c3c(c(O)c1C2=O)C[C@@](O)(C(=O)CO)C[C@@H]3O[C@H]1C[C@H](N)[C@H](O)[C@H](C)O1
[D] Cc1c2ccccc2nc2c(C(=O)NCCN(C)C)cccc12
[E] COc1cccc2cc3cccc(C(=O)NCCN(C)C)c3nc12
Task item: Arrange the 5 compounds by rising IC50, starting with the smallest. In your reply, arrange the labels in the requested order.
Reply: B, C, E, D, A
(B: 6.4 nM, C: 15 nM, E: 26 nM, D: 150 nM, A: 240 nM)

[1] CN(C)CCNC(=O)c1cccc2cc3cc(Cl)ccc3nc12
[2] CN(C)CCNC(=O)c1cccc2cc3cccc(Cl)c3nc12
Task item: Out of 1 and 2 , name the one with the higher IC50. # reply format: chosen label
Reply: 1
(1: 250 nM, 2: 6.5 nM)

[A] CN(C)CCNC(=O)c1cccc2cc3cccc(-c4ccccc4)c3nc12
[B] COc1cc(NS(C)(=O)=O)ccc1Nc1c2ccccc2nc2ccccc12
Task item: Sorting ascending by IC50, which comes first: A or B ? # reply format: chosen label
Reply: B

[1] CN(C)CCNC(=O)c1cccc2cc3cc(Br)ccc3nc12
[2] CN(C)CCNC(=O)c1cccc2cc3ccc(Br)cc3nc12
[3] Cc1cccc2nc3c(C(=O)NCCN(C)C)cccc3cc12
Task item: Returns the items ordered by IC50, from maximum to minimum. In your reply, arrange the labels in the requested order.
Reply: 3, 2, 1
(3: 250 nM, 2: 160 nM, 1: 87 nM)

---

# Test system: P388
# assay.remarks: Inhibitory concentration required to reduce murine p388 leukemia cell number to 50% of control cultures
# Format: functional, cell-based
# run.parameters: Mus musculus
reported.property: IC50 (nM)

molecular.string: COc1ccc2nc3c(C(=O)NCCN(C)C)cccc3cc2c1
target.desc: P388
IC50, nM: 580
--
molecular.string: CN(C)CCNC(=O)c1cccc2cc3ccc(C(F)(F)F)cc3nc12
target.desc: P388
IC50, nM: 1130
--
molecular.string: CC(C)c1ccc2nc3c(C(=O)NCCN(C)C)cccc3cc2c1
target.desc: P388
IC50, nM: 3700

[I] CN(C)CCNC(=O)c1cccc2cc3cc(C(C)(C)C)ccc3nc12
[II] CN(C)CCNC(=O)c1ccc2nc3c(C(=O)NCCN(C)C)cccc3cc2c1
Task item: Out of I and II , name the one with the higher IC50. # reply format: chosen label
Reply: I
(I: 6300 nM, II: 890 nM)

---

# System: P388
# assay.remarks: Inhibitory concentration required to reduce murine p388 leukemia cell number to 50% of control cultures
# Type: functional, cell-based
# run.parameters: Mus musculus
reported.property: IC50 (µM)

molecular.string: CN(C)CCNC(=O)c1cccc2cc3cc(F)ccc3nc12
reported.result: 0.055

[A] CN(C)CCNC(=O)c1cccc2cc3ccc(Cl)cc3nc12
[B] CN(C)CCNC(=O)c1cccc2cc3ccc(F)cc3nc12
[C] CN(C)CCNC(=O)c1cccc2cc3cccc(F)c3nc12
Task item: Returns the items ordered by IC50, from maximum to minimum. In your reply, arrange the labels in the requested order.
Reply: A, B, C

[P] CN(C)CCNC(=O)c1cccc2cc3c(Cl)cccc3nc12
[Q] CN(C)CCNC(=O)c1cccc2cc3cccc(Br)c3nc12
[R] CN(C)CCNC(=O)c1cccc2cc3cccc(C(F)(F)F)c3nc12
[S] CN(C)CCNC(=O)c1cccc2cc3cc(C(F)(F)F)ccc3nc12
Task item: Returns the items ordered by IC50, from maximum to minimum. In your reply, arrange the labels in the requested order.
Reply: S, P, R, Q
